Every entry's value here was drawn from patent US20230134571A1.

Molecular target: HIV Env, isolate Ce0393_C3 (HIV)
Test: cell-based or functional assay
EXPERIMENTAL_ENDPOINT: IC80 (µg/ml) with constrains (µg/mL)

BINDER	VALUE_OBSERVED
ePGDM9 (antibody, V domains shown) VH: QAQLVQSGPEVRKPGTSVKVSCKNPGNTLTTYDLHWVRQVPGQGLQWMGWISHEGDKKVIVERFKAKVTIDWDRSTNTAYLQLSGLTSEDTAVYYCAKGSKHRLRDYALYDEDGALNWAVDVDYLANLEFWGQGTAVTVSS VL: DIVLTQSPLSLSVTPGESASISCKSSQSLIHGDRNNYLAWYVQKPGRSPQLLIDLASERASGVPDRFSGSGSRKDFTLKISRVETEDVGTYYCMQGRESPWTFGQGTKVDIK	0.017
ePGDM5 (antibody, V domains shown) VH: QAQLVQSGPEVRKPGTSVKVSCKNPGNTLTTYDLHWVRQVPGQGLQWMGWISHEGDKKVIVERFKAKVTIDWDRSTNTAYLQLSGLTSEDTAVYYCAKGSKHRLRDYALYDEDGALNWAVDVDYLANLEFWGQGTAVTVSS VL: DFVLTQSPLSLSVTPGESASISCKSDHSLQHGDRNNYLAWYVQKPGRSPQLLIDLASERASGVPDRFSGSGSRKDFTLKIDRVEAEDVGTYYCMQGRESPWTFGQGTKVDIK	0.063
PGDM1400 (antibody, V domains shown) VH: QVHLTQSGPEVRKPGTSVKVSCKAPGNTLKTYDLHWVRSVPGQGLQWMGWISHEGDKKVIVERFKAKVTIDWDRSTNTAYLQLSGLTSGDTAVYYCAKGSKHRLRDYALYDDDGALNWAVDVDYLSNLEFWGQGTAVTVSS VL: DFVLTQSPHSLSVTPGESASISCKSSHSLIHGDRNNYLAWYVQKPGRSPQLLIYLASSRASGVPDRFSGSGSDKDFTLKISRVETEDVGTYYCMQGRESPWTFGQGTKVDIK	0.037
